Values were extracted from patent US7183255B2.

# test protocol: Effect of hemodialysis on plasma vasopressin during constant vasopressin infusion (Example 3, Table 1)
# Type: in vivo, human
# settings: human, plasma, iv, 0.3 mU/kg · min^−1; infusion 0.3 mU · kg^−1 · min^−1; 2 h Dialysis; mean±SE
measured metric: level at 2 h (ng/mL)
One number for each entry, in ng/mL.

Task: Give a short answer stating reported level at 2 h for NC(=O)CC[C@@H]1NC(=O)[C@H](Cc2ccccc2)NC(=O)[C@H](Cc2ccc(O)cc2)NC(=O)[C@@H](N)CSSC[C@@H](C(=O)N2CCC[C@H]2C(=O)N[C@@H](CCCN=C(N)N)C(=O)NCC(N)=O)NC(=O)[C@H](CC(N)=O)NC1=O .
Result: 0.052

---

# test protocol: Effect of hemodialysis on plasma vasopressin during constant vasopressin infusion (Example 3, Table 1)
# Type: in vivo, human
# settings: human, plasma, iv, 0.15 mU/kg · min^−1; infusion 0.15 mU · kg^−1 · min^−1; 2 h Dialysis; mean±SE
measured metric: level at 2 h (ng/mL)
One number for each entry, in ng/mL.

Task: Give a short answer stating reported level at 2 h for NC(=O)CC[C@@H]1NC(=O)[C@H](Cc2ccccc2)NC(=O)[C@H](Cc2ccc(O)cc2)NC(=O)[C@@H](N)CSSC[C@@H](C(=O)N2CCC[C@H]2C(=O)N[C@@H](CCCN=C(N)N)C(=O)NCC(N)=O)NC(=O)[C@H](CC(N)=O)NC1=O .
Result: 0.029

---

# test protocol: Effect of hemodialysis on plasma vasopressin during constant vasopressin infusion (Example 3, Table 1)
# Assay type: in vivo, human
# settings: human, plasma, iv, 0.3 mU/kg · min^−1; infusion 0.3 mU · kg^−1 · min^−1; 1 h Dialysis; mean±SE
measured metric: level at 1 h (ng/mL)
Give bare numbers, in ng/mL.

Task: Give a short answer stating reported level at 1 h for NC(=O)CC[C@@H]1NC(=O)[C@H](Cc2ccccc2)NC(=O)[C@H](Cc2ccc(O)cc2)NC(=O)[C@@H](N)CSSC[C@@H](C(=O)N2CCC[C@H]2C(=O)N[C@@H](CCCN=C(N)N)C(=O)NCC(N)=O)NC(=O)[C@H](CC(N)=O)NC1=O .
Result: 0.054
